System: K-562 leukemia
procedure_details: NCI-60 one-dose screen, 48 h
test_context: 10 µM unless noted
The panel holds about 83,000 compounds, 20% with a hit somewhere; the sample as a whole holds those more often. Active and inactive are the calls of the source. The calls were made as follows: active = growth percent below 10; inactive = the rest.
Outcome codes: 1 (yes) = active, 0 (no) = inactive

{"columns": ["molecule", "class_label"],
 "data": [
  ["Cc1ccc2c(c1)C(=O)c1c-2c(OCCCN(C)C)nc2ccccc12", "1 (yes)"],
  ["C=C(CN1CCN(c2cccc(C(F)(F)F)n2)CC1)c1ccc(C(=O)Nc2ccccc2N)cc1", "1 (yes)"],
  ["O=c1c2cccc3c(NC4CCCCC4)ccc(c32)c2nc3ccccc3n12", "0 (no)"],
  ["C=C1C(=O)O[C@H]2[C@H]1CC/C(Cn1cc(Cc3c[nH]c4ccccc34)nn1)=C\\CC[C@@]1(C)O[C@@H]21", "1 (yes)"],
  ["CCN(CC)CCC(=O)Nc1ccc(Cn2nnc3c2C(=O)c2nnn(Cc4ccc(NC(=O)CCN(CC)CC)cc4)c2C3=O)cc1", "1 (yes)"],
  ["CC(C)(C)n1cc(-c2ccnc(NCCNS(=O)(=O)c3ccccc3)c2)c(-c2cccc(O)c2)n1", "1 (yes)"],
  ["COc1ccc2nc3cc(Cl)ccc3c(NCCNCC(O)CO)c2c1 (centres undefined)", "0 (no)"],
  ["O=C1C[C@H](N2C(=O)c3ccccc3S2(=O)=O)C2CO[C@@H]1O2", "0 (no)"],
  ["COc1ccc(/C=C/C(=O)c2ccc(NC(=O)c3cc4cc5ccccc5nc4s3)cc2)cc1OC", "0 (no)"]
]}

* * *

System: SF-268 CNS
procedure_details: NCI-60 one-dose screen, 48 h (100 = growth as untreated, 0 = no growth, -100 = all killed)
test_context: 10 µM unless noted
Procedure: Cells are grown in 96 well plates and exposed to the test compound for 48 hours. Compounds are tested at a single concentration, which is 10^-5 M for most compounds. The reported endpoint is percent growth (GI% or GIPRCNT), where numbers from 0 - 100% represent growth inhibition, and numbers from -100% - 0 represent cell death. For example, a value of 40 represents 60% growth inhibition. A value of 0 means no net growth occurred over the course of the experiment. […]
About 83,000 compounds went through this panel and 20% of them were active in at least one assay; those are over-represented in the sample as a whole.
Param threshold (90%) applies to growth; output T when value >= threshold, F when value < threshold.

{"columns": ["chemical_structure", "tested_on", "class_label"],
 "data": [
  ["O=C1/C(=C\\c2cn(C(=O)c3ccc(Cl)cc3)c3ccccc23)c2ccccc2N1c1c(Cl)cccc1Cl", "SF-268 CNS", "T"],
  ["O=C(N/N=C/c1ccc(O)cc1O)c1cccnc1", "SF-268 CNS", "F"],
  ["C=C1C(=O)O[C@H]2[C@H]1CC/C(Cn1cc(Cc3c[nH]c4ccccc34)nn1)=C\\CC[C@@]1(C)O[C@@H]21", "SF-268 CNS", "F"]
]}

* * *

Test system: KM12 colon
procedure_details: NCI-60 one-dose screen, 48 h (100 = growth as untreated, 0 = no growth, -100 = all killed)
test_context: 10 µM unless noted
The panel holds about 83,000 compounds, 20% with a hit somewhere; the sample as a whole holds those more often.

{"columns": ["chemical_structure", "result_unit", "growth"],
 "data": [
  ["CC1=C(NCCN2CCCC2)C(=O)c2c(OCc3cccc(Cl)c3)cccc2C1=O", "%", 81],
  ["c1ccc(-c2nc(N3CCOCC3)c3c4c(sc3n2)CCCCC4)nc1", "%", 64.7],
  ["Nc1nc(-c2ccc(F)cc2)cc(-c2cnn(-c3ccccc3)n2)n1", "%", 100],
  ["CC/C(Cc1ccccc1)=C(/c1ccc(O)cc1)c1ccc(OCCN2CCCC2)cc1", "%", -75.4],
  ["O=C(Nc1ccc(Oc2ccc(F)cc2)c(Cl)c1)c1cccnc1", "%", 76.4],
  ["O=C(O)c1cccc2c1-c1ccccc1C2=O", "%", 97.9],
  ["COc1ncc(-c2ccc3ncnc(Nc4cccc(Cl)c4)c3c2)cc1NS(C)(=O)=O", "%", 55.3],
  ["COc1cc2nc3cc([N+](=O)[O-])ccc3c(NCCCNCC(C)(C)O)c2cc1OC", "%", -47.2],
  ["COc1cc(-c2c3sc(=O)[nH]c3nc3c2c(=O)[nH]n3C(C)C)cc2c1OCO2", "%", 101],
  ["O=C1/C(=C/c2ccccc2)CN(CCC(=O)N2C/C(=C\\c3ccccc3)C(=O)/C(=C/c3ccccc3)C2)C/C1=C\\c1ccccc1", "%", 10.1]
]}

* * *

System: SN12C renal
procedure_details: NCI-60 one-dose screen, 48 h
test_context: 10 µM unless noted
This is part of a sample that, as a whole, favours compounds with a hit. Of some 83,000 tested, about 20% had one in any assay. Activity calls are given as the source filed them. Rule for the calls: active = growth percent below 10; inactive = the rest.
Outcome codes: class 1 (active), class 0 (inactive)

{"columns": ["chemical_structure", "class_label"],
 "data": [
  ["CS(=O)(=O)c1c(Nc2ccccc2)n[nH]c1N", "class 0"],
  ["COC(=O)[C@@H]1CC[C@]2(C)[C@H](CC[C@@H]3O[C@@]32C)[C@@]1(C)CC(=O)c1ccoc1", "class 0"],
  ["COc1ccc(-c2csc(NC(=O)CN3CCN(c4cc5c(cc4F)c(=O)c(C(=O)O)cn5C4CC4)CC3)n2)cc1", "class 1"],
  ["C#Cc1nc(Nc2cc(C)[nH]n2)c2ccccc2n1", "class 1"],
  ["COc1ccc(-c2nn(-c3ccccc3)cc2/C=C/C(=O)OCc2cn(-c3ccc(F)c(Cl)c3)nn2)cc1", "class 0"],
  ["Cc1ccc(N)cc1F", "class 0"]
]}

* * *

Test system: MOLT-4 leukemia
procedure_details: NCI-60 one-dose screen, 48 h
test_context: 10 µM unless noted
About 83,000 compounds went through this panel and 20% of them were active in at least one assay; those are over-represented in the sample as a whole. Calls of active or inactive are those of the source. Rule for the calls: active = growth percent below 10; inactive = the rest.
Possible outcomes: active, inactive

{"columns": ["chemical_structure", "tested_on", "class_label"],
 "data": [
  ["CN(C)c1ccc(/C=C(\\C#N)c2nc3ccccc3s2)cc1", "MOLT-4 leukemia", "inactive"],
  ["CN(C)CCOc1ccc(-c2nc3ccc(-c4nc5ccc(N6CCN(C)CC6)cc5[nH]4)cc3[nH]2)cc1", "MOLT-4 leukemia", "inactive"],
  ["COc1ccc2[nH]c(=O)c(/C=C/C(=O)c3ccc(Nc4nccc(-c5ccc6ccccc6c5)n4)cc3)cc2c1", "MOLT-4 leukemia", "inactive"],
  ["CC[C@]12C=CCN3CC[C@@]4(c5ccc(OC)cc5N(C)[C@H]4[C@@](O)(C(=O)OC)[C@@H]1OC(=O)CCC(=O)N[C@@H](Cc1c[nH]c4ccccc14)C(=O)OC)[C@@H]32", "MOLT-4 leukemia", "active"],
  ["CC[n+]1ccc2c(c1)C(=O)c1nccc3c1c-2nc1ccccc13", "MOLT-4 leukemia", "active"]
]}

* * *

Test system: MOLT-4 leukemia
procedure_details: NCI-60 one-dose screen, 48 h
test_context: 10 µM unless noted
This is part of a sample that, as a whole, favours compounds with a hit. Of some 83,000 tested, about 20% had one in any assay. Calls of active or inactive are those of the source. The calls were made as follows: active = growth percent below 10; inactive = the rest.
Possible outcomes: active, inactive

{"columns": ["compound", "class_label"],
 "data": [
  ["Cc1ccc(-c2nc(/C=N/Nc3cc(C)nc4ccc(Br)cc34)c(C)o2)cc1", "active"],
  ["COc1ccc(-c2nn(-c3ccccc3)cc2/C=C2\\SC(=O)NC2=O)cc1", "inactive"],
  ["CCOC(=O)/C=C/C(=O)[C@H](CC(C)C)NC(=O)[C@H](Cc1ccccc1)NC(=O)OCc1ccccc1", "active"],
  ["NC1=CC(=O)C(=O)c2ccccc21", "inactive"],
  ["Brc1cccc(-c2nc(-c3ccc4c(c3)OCCO4)co2)c1", "inactive"],
  ["CCCCNP1(NCCCC)=NP(NCCCC)(NCCCC)=NP(NCCCC)(NCCCC)=NP(NCCCC)(NCCCC)=N1", "active"],
  ["COc1cc(NCCCCN=C(N)N)c2ncccc2c1", "inactive"],
  ["Oc1cc(O)c2c(=S)cc(-c3ccc(Cl)cc3)oc2c1", "inactive"],
  ["CCCCCCCCCCCCCC1=NCCN1CCO", "active"],
  ["CCN(CC)CCCC(C)N/C(=C1\\C(=O)NC(=O)\\C1=C(/NC(C)CCCN(CC)CC)c1cccc(OC)c1)c1cccc(OC)c1 (stereo unspecified)", "active"],
  ["O=c1c2cccc3c(Nc4ccccn4)ccc(c32)c2nc3ccccc3n12", "inactive"]
]}

* * *

Tested on: NCI-H23 lung
procedure_details: NCI-60 one-dose screen, 48 h
test_context: 10 µM unless noted
Method: Growth inhibition of the NCI-H23 human Non-Small Cell Lung tumor cell line is measured as a screen for anti-cancer activity. Cells are grown in 96 well plates and exposed to the test compound for 48 hours. Compounds are tested at a single concentration, which is 10^-5 M for most compounds. The reported endpoint is percent growth (GI% or GIPRCNT), where numbers from 0 - 100% represent growth inhibition, and numbers from -100% - 0 represent cell death. […]
This is part of a sample that, as a whole, favours compounds with a hit. Of some 83,000 tested, about 20% had one in any assay. Calls of active or inactive are those of the source. How the source made its calls: active means growth percent below 10; inactive means the rest.
Possible outcomes: active, inactive

{"columns": ["chemical_structure", "tested_on", "class_label"],
 "data": [
  ["O=C(O)c1ccc2c(c1Sc1ccccc1)C(=O)c1ccccc1C2=O", "NCI-H23 lung", "inactive"],
  ["COC(=O)[C@@H]1CC[C@]2(C)[C@H](CC[C@@H]3O[C@@]32C)[C@@]1(C)CC(=O)c1ccoc1", "NCI-H23 lung", "inactive"],
  ["CN(C)CCCC(=O)Nc1ccc(Cn2nnc3c2C(=O)c2nnn(Cc4ccc(NC(=O)CCCN(C)C)cc4)c2C3=O)cc1", "NCI-H23 lung", "active"],
  ["C=C(CN1CCN(c2cccc(C(F)(F)F)n2)CC1)c1ccc(C(=O)Nc2ccccc2N)cc1", "NCI-H23 lung", "inactive"],
  ["Cc1cc(-c2nc3ccccc3s2)ccc1NC(=O)COc1ccc(Cl)cc1", "NCI-H23 lung", "inactive"],
  ["CCOC(=S)SCc1ccc(Cl)cc1", "NCI-H23 lung", "inactive"],
  ["O=C(O)c1cn(C2CC2)c2cc(N3CCN(Cc4nc5c(cnn5-c5ccc([N+](=O)[O-])cc5)c(=O)[nH]4)CC3)c(F)cc2c1=O", "NCI-H23 lung", "inactive"],
  ["COC(=O)[C@H](C(C)C)n1c(=O)c2cc(OC)c(OC)cc2c2cnc3[nH]ccc3c21", "NCI-H23 lung", "inactive"],
  ["Oc1ccc2c(=S)cc(-c3ccc(Br)cc3)oc2c1O", "NCI-H23 lung", "active"]
]}
